Below is a list of entries, each paired with its recorded log10 Activity value.
# measurement notes: Antioxidant activity assessed as AAPH free radical scavenging activity measured as trolox equivalent by TRAP assay
# Assay type: physicochemical
Could you please treat all values as log10 of Activity in equiv?

For orientation, consider the following solved cases.
>  <compound>
CCOP(=O)(OCC)C(C)(C)/[N+]([O-])=C/c1ccccc1[N+](=O)[O-]

>  <log10 Activity>
-1.70

$$$$
>  <compound>
CCOP(=O)(OCC)C(C)(C)/[N+]([O-])=C/c1ccccc1C(F)(F)F

>  <log10 Activity>
-1.70

$$$$
>  <compound>
CCOP(=O)(OCC)C(C)(C)/[N+]([O-])=C/c1ccc(O)c(OC)c1

>  <log10 Activity>
0.28

$$$$
>  <compound>
CCOP(=O)(OCC)C(C)(C)/[N+]([O-])=C/c1cccc(O)c1

>  <log10 Activity>
-1.00

$$$$
>  <compound>
CCOP(=O)(OCC)C(C)(C)/[N+]([O-])=C/c1cc(OC)c(O)c(OC)c1

>  <log10 Activity>
0.16

$$$$
>  <compound>
O=C(O)/C=C/c1ccc(O)c(O)c1

>  <log10 Activity>
0.44

$$$$
>  <compound>
CCOP(=O)(OCC)C(C)(C)/[N+]([O-])=C/c1cccc([N+](=O)[O-])c1

>  <log10 Activity>
-1.70

$$$$
>  <compound>
O=C(O)c1cc(O)c(O)c(O)c1

>  <log10 Activity>
0.07

$$$$
>  <compound>
CCOP(=O)(OCC)C(C)(C)/[N+]([O-])=C/c1ccc(O)cc1

>  <log10 Activity>
-0.19

$$$$

Let us move to another entry and its log10 Activity.
Notebook: COc1cc(/C=C/C(=O)O)cc(OC)c1O [SINAPINATE] , log10 Activity read as 0.21

###

Below is a list of entries, each paired with its recorded pIC50 value.
# measurement notes: Antioxidant activity assessed as inhibition of […]-xanthine oxidase system-mediated superoxide formation measured over 7 mins by lucigenin-based chemiluminescence analysis
# Assay type: physicochemical
Units for pIC50: none; it is -log10 of a concentration expressed in mol/L.

>  <compound>
O=c1c(O)c(-c2ccc(O)c(O)c2)oc2cc(O)cc(O)c12

>  <pIC50>
6.30

$$$$
>  <compound>
CCOP(=O)(OCC)C(C)(C)/[N+]([O-])=C/c1cc(O)c(O)c(O)c1

>  <pIC50>
6.05

$$$$
>  <compound>
CCOP(=O)(OCC)C(C)(C)/[N+]([O-])=C/c1cc(OC)c(O)c(OC)c1

>  <pIC50>
4.14

$$$$

Notebook: CCOP(=O)(OCC)C(C)(C)/[N+]([O-])=C/c1cccc(O)c1 , pIC50 read as 3.91

Notebook: CCOP(=O)(OCC)C(C)(C)/[N+]([O-])=C/c1ccc(O)c(OC)c1 , pIC50 read as 4.54

Notebook: CCOP(=O)(OCC)C(C)(C)/[N+]([O-])=C/c1ccc([N+](=O)[O-])cc1 , pIC50 read as 5.03

Notebook: CCOP(=O)(OCC)C(C)(C)/[N+]([O-])=C/c1ccc(C(=O)O)cc1 , pIC50 read as 5.39

Notebook: COc1cc(/C=C/C(=O)O)cc(OC)c1O [SINAPINATE] , pIC50 read as 4.65

Notebook: CCOP(=O)(OCC)C(C)(C)/[N+]([O-])=C/c1ccccc1C(F)(F)F , pIC50 read as 5.38

###

Below is a list of entries, each paired with its recorded IC50 value.
# Test system: A549
# measurement notes: Cytotoxicity against human A549 cells assessed as reduction in cell viability measured after 48 hrs by luminescence-based ATP assay
# condition summary: A549, 48 h
Report as a plain number; the unit mM is understood.

>  <compound>
CCOP(=O)(OCC)C(C)(C)/[N+]([O-])=C/c1ccc(C(=O)O)cc1

>  <IC50 (mM)>
8.2

$$$$
>  <compound>
COc1cc(/C=C/C(=O)O)ccc1O [FERULATE]

>  <IC50 (mM)>
3.2

$$$$
>  <compound>
CCOP(=O)(OCC)C(C)(C)/[N+]([O-])=C/c1cc(O)c(O)c(O)c1

>  <IC50 (mM)>
0.6

$$$$
>  <compound>
CCOP(=O)(OCC)C(C)(C)/[N+]([O-])=C/c1ccc(O)c(OC)c1

>  <IC50 (mM)>
4.3

$$$$
>  <compound>
CCOP(=O)(OCC)C(C)(C)/[N+]([O-])=C/c1cc(O)cc(O)c1

>  <IC50 (mM)>
7

$$$$
>  <compound>
CCOC(=O)c1ccc(/C=[N+](\[O-])C(C)(C)P(=O)(OCC)OCC)cc1

>  <IC50 (mM)>
3.6

$$$$
>  <compound>
CCOP(=O)(OCC)C(C)(C)/[N+]([O-])=C/c1ccc(O)cc1

>  <IC50 (mM)>
12.4

$$$$
>  <compound>
O=C(O)/C=C/c1ccc(O)c(O)c1 [CAFFEIC ACID]

>  <IC50 (mM)>
0.7

$$$$

Notebook: CCOP(=O)(OCC)C(C)(C)/[N+]([O-])=C/c1ccccc1 , IC50 read as 10.8

Notebook: CCOP(=O)(OCC)C(C)(C)/[N+]([O-])=C/c1cc(OC)c(O)c(OC)c1 , IC50 read as 14.8

Notebook: CCOP(=O)(OCC)C(C)(C)/[N+]([O-])=C/c1c(C)cccc1C , IC50 read as 5.3

Notebook: O=C(O)c1cc(O)c(O)c(O)c1 [GALLIC ACID] , IC50 read as 0.4

Notebook: CCOP(=O)(OCC)C(C)(C)/[N+]([O-])=C/c1ccccc1O , IC50 read as 9.3

Notebook: CCOP(=O)(OCC)C(C)(C)/[N+]([O-])=C/c1cccc(O)c1 , IC50 read as 8.3

###

# measurement notes: Half life of the compound in phosphate buffer at pH 6 by UV-illumination
# Type: ADME
measurement label: half-life

Notebook: CC(C)(C)N([O])C(O)c1ccccc1 (stereo unspecified) , half-life read as 1.5 min

###

# measurement notes: Antioxidant activity assessed as AAPH free radical scavenging activity measured as trolox equivalent by TRAP assay
# Assay type: physicochemical
measurement label: Activity (equiv)
Report as a plain number; the unit equiv is understood.

For orientation, consider the following solved cases.
>  <record smiles>
O=c1c(O)c(-c2ccc(O)c(O)c2)oc2cc(O)cc(O)c12

>  <Activity [equiv]>
6.28

$$$$
>  <record smiles>
CCOP(=O)(OCC)C(C)(C)/[N+]([O-])=C/c1ccc(O)c(O)c1

>  <Activity [equiv]>
2.22

$$$$
>  <record smiles>
CCOP(=O)(OCC)C(C)(C)/[N+]([O-])=C/c1ccc(O)cc1O

>  <Activity [equiv]>
1.61

$$$$

Notebook: CCOP(=O)(OCC)C(C)(C)/[N+]([O-])=C/c1ccc(C(=O)O)cc1 , Activity read as 0.02

###

# measurement notes: Antioxidant activity assessed as inhibition of […]-xanthine oxidase system-mediated superoxide formation measured over 7 mins by lucigenin-based chemiluminescence analysis
# Format: physicochemical
measurement label: pIC50
Units for pIC50: none; it is -log10 of a concentration expressed in mol/L.

>  <compound>
Cc1c(C)c2c(c(C)c1O)CCC(C)(C(=O)O)O2 (stereo unspecified)

>  <pIC50>
4.88

$$$$
>  <compound>
COc1cc(/C=C/C(=O)O)ccc1O [FERULATE]

>  <pIC50>
4.46

$$$$
>  <compound>
CCOP(=O)(OCC)C(C)(C)/[N+]([O-])=C/c1cccc([N+](=O)[O-])c1

>  <pIC50>
4.28

$$$$
>  <compound>
CCOP(=O)(OCC)C(C)(C)/[N+]([O-])=C/c1ccc(NC(C)=O)cc1

>  <pIC50>
4.58

$$$$

Let us move to another entry and its pIC50.
Notebook: CCOP(=O)(OCC)C(C)(C)/[N+]([O-])=C/c1ccc(O)cc1 , pIC50 read as 4.22

###

Below is a list of entries, each paired with its recorded log10 Activity value.
# measurement notes: Antioxidant activity assessed as AAPH free radical scavenging activity measured as trolox equivalent by TRAP assay
# Format: physicochemical
Could you please treat all values as log10 of Activity in equiv?

For orientation, consider the following solved cases.
>  <compound>
CCOP(=O)(OCC)C(C)(C)/[N+]([O-])=C/c1ccc([N+](=O)[O-])cc1

>  <val>
-1.70

$$$$
>  <compound>
CCOP(=O)(OCC)C(C)(C)/[N+]([O-])=C/c1c(C)cccc1C

>  <val>
-1.70

$$$$
>  <compound>
CCOP(=O)(OCC)C(C)(C)/[N+]([O-])=C/c1cc(O)cc(O)c1

>  <val>
-0.15

$$$$

Notebook: CCOP(=O)(OCC)C(C)(C)/[N+]([O-])=C/c1ccc(NC(C)=O)cc1 , log10 Activity read as -1.70

Notebook: CCOP(=O)(OCC)C(C)(C)/[N+]([O-])=C/c1ccccc1 , log10 Activity read as -1.70

Notebook: CC(C)(C)/[N+]([O-])=C/c1ccccc1 , log10 Activity read as -1.70

Notebook: CCOP(=O)(OCC)C(C)(C)/[N+]([O-])=C/c1cc(O)c(O)c(O)c1 , log10 Activity read as 0.16

Notebook: COc1cc(/C=C/C(=O)O)ccc1O [FERULATE] , log10 Activity read as 0.33

Notebook: CCOC(=O)c1ccc(/C=[N+](\[O-])C(C)(C)P(=O)(OCC)OCC)cc1 , log10 Activity read as -0.80

Notebook: CCOP(=O)(OCC)C(C)(C)/[N+]([O-])=C/c1ccccc1O , log10 Activity read as -0.60
